Test system: Helicobapter pylori
experiment: Minimal inhibiting concentration (agar dilution)
Format: cell-based
reported conditions: strain 9
quantity kind: MIC

| molecule | quantity kind | result |
| --- | --- | --- |
| Cc1ncc([N+](=O)[O-])n1CCO [Metronidazole, reference compound] | MIC | 0.12 mg/L |
| Cc1cc(C(O)c2ncc([N+](=O)[O-])n2C)c(O)c(C(C)(C)C)c1 (stereo not shown) | MIC | 0.03 mg/L |
| Cn1c([N+](=O)[O-])cnc1C(O)c1cc(C(C)(C)C)cc(C(C)(C)C)c1O (stereo not shown) | MIC | 0.25 mg/L |
| COc1cc(C(O)c2ncc([N+](=O)[O-])n2C)c(O)c(C(C)(C)C)c1 (stereo not shown) | MIC | 0.03 mg/L |

###

Tested on: Helicobapter pylori
experiment: Minimal inhibiting concentration (agar dilution)
Assay type: cell-based
reported conditions: strain 1
quantity kind: MIC (µg/mL)

| compound | subject of test | quantity kind | quantitative result |
| --- | --- | --- | --- |
| Cc1cc(C(O)c2ncc([N+](=O)[O-])n2C)c(O)c(C(C)(C)C)c1 (stereo not shown) [EU11103] | Helicobapter pylori | MIC | 0.06 |
| COc1cc(C(O)c2ncc([N+](=O)[O-])n2C)c(O)c(C(C)(C)C)c1 (stereo not shown) [EU11100] | Helicobapter pylori | MIC | 0.12 |
| Cn1c([N+](=O)[O-])cnc1C(O)c1cc(C(C)(C)C)cc(C(C)(C)C)c1O (stereo not shown) [EU11102] | Helicobapter pylori | MIC | 0.5 |
| Cc1ncc([N+](=O)[O-])n1CCO [Metronidazole, reference compound] | Helicobapter pylori | MIC | 0.25 |

###

System: Helicobapter pylori
experiment: Minimal inhibiting concentration (agar dilution)
Type: cell-based
reported conditions: strain 5

| compound | MIC / µg/mL |
| --- | --- |
| COc1cc(C(O)c2ncc([N+](=O)[O-])n2C)c(O)c(C(C)(C)C)c1 (stereo not shown) | 0.015 |
| Cc1ncc([N+](=O)[O-])n1CCO [Metronidazole, reference compound] | 0.015 |
| Cc1cc(C(O)c2ncc([N+](=O)[O-])n2C)c(O)c(C(C)(C)C)c1 (stereo not shown) | 0.03 |
| Cn1c([N+](=O)[O-])cnc1C(O)c1cc(C(C)(C)C)cc(C(C)(C)C)c1O (stereo not shown) | 0.25 |

###

Test system: Helicobapter pylori
experiment: Inhibition halos of the bacterial growth (impregnated disks on agar)
Assay type: cell-based
reported conditions: strain 1, 1 µg/disk
quantity kind: Inhibition halo (mm) at the concentration (µg/disk)

| molecule | quantitative result |
| --- | --- |
| Cn1c([N+](=O)[O-])cnc1C(O)c1cc(C(C)(C)C)cc(C(C)(C)C)c1O (centres unmarked) | 15 |
| COc1cc(C(O)c2ncc([N+](=O)[O-])n2C)c(O)c(C(C)(C)C)c1 (centres unmarked) | 35 |
| Cc1ncc([N+](=O)[O-])n1CCO [Metronidazole, reference compound] | 0 |
| Cc1cc(C(O)c2ncc([N+](=O)[O-])n2C)c(O)c(C(C)(C)C)c1 (centres unmarked) | 30 |
| Cc1ccc(C(C)(C)C)c(O)c1C(O)c1ncc([N+](=O)[O-])n1C (centres unmarked) | 27 |
